# System tested: MMP-2 (Homo sapiens, UniProt P08253)
# Construct: made in house; provided by Dr. Gregory Goldberg, Washington University
# Sequence (P08253 110-660): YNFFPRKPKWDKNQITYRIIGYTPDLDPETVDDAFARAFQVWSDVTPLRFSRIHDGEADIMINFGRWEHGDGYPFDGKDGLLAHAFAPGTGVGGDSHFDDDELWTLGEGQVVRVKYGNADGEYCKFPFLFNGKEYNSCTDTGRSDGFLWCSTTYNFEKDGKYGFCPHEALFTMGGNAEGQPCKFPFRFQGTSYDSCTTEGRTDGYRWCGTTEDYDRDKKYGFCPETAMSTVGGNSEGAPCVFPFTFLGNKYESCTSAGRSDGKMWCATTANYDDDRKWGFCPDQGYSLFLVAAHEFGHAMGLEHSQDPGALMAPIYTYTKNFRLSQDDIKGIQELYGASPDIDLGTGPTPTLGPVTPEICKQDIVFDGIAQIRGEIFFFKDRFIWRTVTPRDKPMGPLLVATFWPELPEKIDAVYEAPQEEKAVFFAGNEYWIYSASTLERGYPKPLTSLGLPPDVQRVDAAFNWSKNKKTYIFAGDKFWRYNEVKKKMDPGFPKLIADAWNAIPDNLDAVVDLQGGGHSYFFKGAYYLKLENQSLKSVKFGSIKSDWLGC
# Run description: biochemical
# Assay setup: recombinant human MMP-2, MCA peptide substrate 4 μM, pH 7.5, room temperature; read-out: MMP-2 IC50
# Protocol: The compounds prepared in the manner described in the Examples above were assayed for activity by an in vitro assay. […] Briefly, 4-aminophenylmercuric acetate (APMA) or trypsin-activated MMPs were incubated with various concentrations of the inhibitor compound at room temperature for 5 minutes. […] Inhibition was measured as a reduction in fluorescent intensity as a function of inhibitor concentration, using a Perkin Elmer L550 plate reader. The IC50 values were calculated from those values. […]
pIC50: −log10 of the molar value.
Property: pIC50

{"columns": ["Line notation", "Result number"],
 "data": [
  ["O=C(c1ccc2ccccc2c1)C1CCN(c2ccc(S(=O)(=O)C3(C(=O)NO)CCN(C4CC4)CC3)cc2)CC1", 6.37],
  ["COCc1ccc(COC2CCN(c3ccc(S(=O)(=O)C4(C(=O)NO)CCOCC4)cc3)CC2)cc1", 7.03],
  ["CN(C)c1cccc(C(=O)C2CCN(c3ccc(S(=O)(=O)C4(C(=O)NO)CCOCC4)cc3)CC2)c1", 6.15],
  ["O=C(CNCc1ccccn1)N1CCC(C(=O)NO)(S(=O)(=O)c2ccc(Oc3ccc(C(F)(F)F)cc3)cc2)CC1", 8.40]
]}

Where these numbers come from: patent US6750228B1
